Documented growth AUC across a set of compounds
- System: Lactobacillus paracasei
- ASSAY DETAILS: growth AUC relative to DMSO control (median of replicates) (fraction); higher = more growth (less inhibition), active = hit call of the paper
- EXPERIMENTAL CONTEXT: 20 µM; 24 h
Answer with the value's number alone.

Examples from the recorded data:
STRUCTURE: Clc1ccc(CSc2ccc(Cl)cc2)cc1
growth AUC: 1.02

STRUCTURE: COc1cc(OC)nc(NC(=O)NS(=O)(=O)Nc2ccccc2C(=O)C2CC2)n1
growth AUC: 1.01

**Query** Could you tell me which growth AUC is on file for CN(C)C(=O)Nc1cc(C(C)(C)C)on1 ?
**Result** 1

**Query** Let us now turn to Cl.NCCO/C=C/[C@H](N)C(=O)O
**Result** 1.02

###

- System: Fusobacterium nucleatum subsp. animalis
- ASSAY DETAILS: growth AUC relative to DMSO control (median of replicates) (fraction); higher = more growth (less inhibition), active = hit call of the paper
- EXPERIMENTAL CONTEXT: 20 µM; 24 h
Documented growth AUC across a set of compounds
Answer with the value's number alone.

Examples from the recorded data:
COMPOUND: CCCCCCCC/C=C\CCCCCCCCCCCC(=O)O
TEST VALUE: 1.02
--
COMPOUND: c1ccc2cc3c(ccc4ccccc43)cc2c1
TEST VALUE: 1.01

**Query** Could you tell me which growth AUC is on file for [S] ?
**Result** 1.01

**Query** Let us now turn to Cc1c(C(=O)c2c[nH]n(C)c2=O)ccc(S(C)(=O)=O)c1C1=NOCC1
**Result** 0.972

**Query** Let us now turn to CCc1cccc(C)c1NC(=O)C(=O)O
**Result** 0.981

**Query** Let us now turn to COC(=O)C(Cl)Cc1ccc(Cl)cc1 (stereo not drawn)
**Result** 0.995

**Query** Let us now turn to Nc1ccc(S(=O)(=O)Nc2nccs2)cc1
**Result** 0.993

**Query** Let us now turn to O=[N+](Nc1ccccc1)c1ccccc1
**Result** 0.978

**Query** Let us now turn to CC(C)(NC(=O)NCc1ccccc1Cl)c1ccccc1
**Result** 1.02

###

Documented growth AUC across a set of molecules
- System: Bifidobacterium longum subsp. longum
- ASSAY DETAILS: growth AUC relative to DMSO control (median of replicates) (fraction); higher = more growth (less inhibition), active = hit call of the paper
- EXPERIMENTAL CONTEXT: 20 µM; 24 h
Answer with the value's number alone.

Examples from the recorded data:
MOLECULE: NC(=O)c1nn(-c2c(Cl)cc(C(F)(F)F)cc2Cl)c(N)c1S(=O)C(F)(F)F (stereo unspecified)
SYSTEM UNDER TEST: Bifidobacterium longum subsp. longum
TEST VALUE: 0.976
//
MOLECULE: CC(=O)CC(c1ccccc1)c1c(O)c2ccccc2oc1=O (stereo unspecified)
SYSTEM UNDER TEST: Bifidobacterium longum subsp. longum
TEST VALUE: 1
//
MOLECULE: Clc1ccc(Sc2cc(Cl)c(Cl)cc2Cl)cc1
SYSTEM UNDER TEST: Bifidobacterium longum subsp. longum
TEST VALUE: 0.986

**Query** Could you tell me which growth AUC is on file for CC(C)(SC(=O)N1CCCCC1)c1ccccc1 ?
**Result** 1.01

**Query** Let us now turn to CNC(=O)/C(=N/OC)c1ccccc1COc1cc(C(=O)O)ccc1C
**Result** 0.998

Data origin, for the record: the supplement of paper PMC12669032
